System: S. pneumoniae 163(MefA)
METHOD: MIC, NCCLS broth microdilution
Assay type: cell-based, Streptococcus pneumoniae
RUN_PARAMETERS: Streptococcus pneumoniae; S. pneumoniae 163(MefA); Table 1; read-out: MIC
ATTRIBUTE_MEASURED: MIC

[[record]]
compound = "CC[C@H]1OC(=O)[C@H](C)C(=O)[C@H](C)[C@@H](O[C@@H]2O[C@H](C)C[C@H](N(C)C)[C@H]2O)[C@](C)(OC)C[C@@H](C)C(=O)[C@H](C)[C@H]2N(CCCCn3cnc(-c4cccnc4)c3)C(=O)O[C@]12C [Telithromycin, reference compound]"
recorded_measurement = "≤ 0.125 µg/mL"

[[record]]
compound = "CC[C@H]1OC(=O)[C@H](C)C(=O)[C@H](C)[C@@H](OC2OC(C)C(O)C(N(C)C)C2O)[C@@](C)(OC)C[C@@H](C)C(=O)[C@H](C)[C@H]2N(CCCCn3cc(Cn4nnc5ccccc54)nn3)C(=O)O[C@]12C (some centres unmarked)"
recorded_measurement = "0.5 µg/mL"

[[record]]
compound = "CC[C@H]1OC(=O)[C@H](C)C(=O)[C@H](C)[C@@H](OC(=O)C2CN(C(=O)OC(C)(C)C)C(C)(C)O2)[C@@](C)(OC)C[C@@H](C)C(=O)[C@H](C)[C@H]2N(CCCCn3cnc(-c4cccnc4)c3)C(=O)O[C@]12C (some centres unmarked)"
recorded_measurement = "≤ 0.125 µg/mL"

[[record]]
compound = "CC[C@H]1OC(=O)[C@H](C)C(=O)[C@H](C)[C@@H](OC2OC(C)CC(N(C)C)C2O)[C@@](C)(OC)C[C@@H](C)C(=O)[C@H](C)[C@H]2N(CCCCn3cc(Cn4nnc5ccccc54)nn3)C(=O)O[C@]12C (some centres unmarked)"
recorded_measurement = "≤ 0.125 µg/mL"


Please examine the following record next.
Lookup: Return MIC for the following compound: CC[C@H]1OC(=O)[C@H](C)[C@@H](O[C@H]2C[C@@](C)(OC)[C@@H](O)[C@H](C)O2)[C@H](C)[C@@H](O[C@@H]2O[C@H](C)C[C@H](N(C)C)[C@H]2O)[C@](C)(O)C[C@@H](C)CN(C)[C@H](C)[C@@H](O)[C@]1(C)O [Azithromycin, reference compound]
Found: ≤ 0.125 µg/mL

###

What follows is a record of MIC for S. pyogenes ATCC 19615.
Express the result in µg/mL but write the number alone.

[[record]]
molecule = "CC[C@H]1OC(=O)[C@H](C)C(=O)[C@H](C)[C@@H](OC(=O)C2CN(C(=O)OC(C)(C)C)C(C)(C)O2)[C@@](C)(OC)C[C@@H](C)C(=O)[C@H](C)[C@H]2N(CCCCn3cnc(-c4cccnc4)c3)C(=O)O[C@]12C (some centres unmarked)"
unit_abbrev = "µg/mL"
recorded_measurement = 32


Please examine the following record next.
Lookup: Return MIC for the following molecule: CC[C@H]1OC(=O)[C@H](C)[C@@H](O[C@H]2C[C@@](C)(OC)[C@@H](O)[C@H](C)O2)[C@H](C)[C@@H](O[C@@H]2O[C@H](C)C[C@H](N(C)C)[C@H]2O)[C@](C)(O)C[C@@H](C)CN(C)[C@H](C)[C@@H](O)[C@]1(C)O [Azithromycin, reference compound]
Found: 1

###

Test system: S. pyogenes 1721
ATTRIBUTE_MEASURED: MIC (µg/mL)
Express the result in µg/mL but write the number alone.

Record excerpt, results attached:
[[record]]
compound = "CC[C@H]1OC(=O)[C@@](C)(F)C(=O)[C@H](C)[C@@H](O[C@@H]2O[C@H](C)C[C@H](N(C)C)[C@H]2O)[C@](C)(OC)C[C@@H](C)C(=O)[C@H](C)[C@H]2N(CCCCn3cc(-c4cccc(N)c4)nn3)C(=O)O[C@]12C [OP-1068]"
attribute_measured = "MIC"
recorded_measurement = 0.5

[[record]]
compound = "CC[C@H]1OC(=O)[C@@](C)(F)C(=O)[C@H](C)[C@@H](OC2OC(COC(C)=O)CC(N(C)C)C2O)[C@@](C)(OC)C[C@@H](C)C(=O)[C@H](C)[C@H]2N(CCCCn3cc(-c4cccc(N)n4)nn3)C(=O)O[C@]12C (stereo partly shown) [OP-1356]"
attribute_measured = "MIC"
recorded_measurement = 4

[[record]]
compound = "CC[C@H]1OC(=O)[C@H](C)C(=O)[C@H](C)[C@@H](O[C@@H]2O[C@H](C)C[C@H](N(C)C)[C@H]2O)[C@](C)(OC)C[C@@H](C)C(=O)[C@H](C)[C@H]2N(CCCCn3cnc(-c4cccnc4)c3)C(=O)O[C@]12C [Telithromycin, reference compound]"
attribute_measured = "MIC"
recorded_measurement = 64


Please examine the following record next.
Lookup: Answer with MIC of CC[C@H]1OC(=O)[C@@](C)(F)C(=O)[C@H](C)[C@@H](OC2OC(C)CC(N(C)C)C2O)[C@@](C)(OC)C[C@@H](C)C(=O)[C@H](C)[C@H]2N(CCCCn3cc(-c4cccc(N)n4)nn3)C(=O)O[C@]12C (stereo partly shown) [OP-1357] measured for S. pyogenes 1721.
Found: 2

###

System: S. aureus MRSA 33591
ATTRIBUTE_MEASURED: MIC

Record excerpt, results attached:
[[record]]
compound = "CC[C@H]1OC(=O)[C@H](C)C(=O)[C@H](C)[C@@H](OC(=O)C2CN(C(=O)OC(C)(C)C)C(C)(C)O2)[C@@](C)(OC)C[C@@H](C)C(=O)[C@H](C)[C@H]2N(CCCCn3cnc(-c4cccnc4)c3)C(=O)O[C@]12C (some centres unmarked)"
attribute_measured = "MIC"
recorded_measurement = "> 64 µg/mL"

[[record]]
compound = "CC[C@H]1OC(=O)[C@H](C)C(=O)[C@H](C)[C@@H](OC2OC(C)C(O)C(N(C)C)C2O)[C@@](C)(OC)C[C@@H](C)C(=O)[C@H](C)[C@H]2N(CCCCn3cc(Cn4nnc5ccccc54)nn3)C(=O)O[C@]12C (some centres unmarked)"
attribute_measured = "MIC"
recorded_measurement = "> 64 µg/mL"

[[record]]
compound = "CC[C@H]1OC(=O)[C@H](C)[C@@H](O[C@H]2C[C@@](C)(OC)[C@@H](O)[C@H](C)O2)[C@H](C)[C@@H](O[C@@H]2O[C@H](C)C[C@H](N(C)C)[C@H]2O)[C@](C)(O)C[C@@H](C)CN(C)[C@H](C)[C@@H](O)[C@]1(C)O [Azithromycin, reference compound]"
attribute_measured = "MIC"
recorded_measurement = "> 64 µg/mL"

[[record]]
compound = "CC[C@H]1OC(=O)[C@H](C)C(=O)[C@H](C)[C@@H](O[C@@H]2O[C@H](C)C[C@H](N(C)C)[C@H]2O)[C@](C)(OC)C[C@@H](C)C(=O)[C@H](C)[C@H]2N(CCCCn3cnc(-c4cccnc4)c3)C(=O)O[C@]12C [Telithromycin, reference compound]"
attribute_measured = "MIC"
recorded_measurement = "> 64 µg/mL"


Please examine the following record next.
Lookup: Answer with MIC of CC[C@H]1OC(=O)[C@H](C)C(=O)[C@H](C)[C@@H](OC2OC(C)CC(N(C)C)C2O)[C@@](C)(OC)C[C@@H](C)C(=O)[C@H](C)[C@H]2N(CCCCn3cc(Cn4nnc5ccccc54)nn3)C(=O)O[C@]12C (some centres unmarked) measured for S. aureus MRSA 33591.
Found: > 64 µg/mL

###

What follows is a record of MIC for S. pyogenes ATCC 19615.

Record excerpt, results attached:
[[record]]
compound = "CC[C@H]1OC(=O)[C@H](C)C(=O)[C@H](C)[C@@H](OC2OC(C)CC(N(C)C)C2O)[C@@](C)(OC)C[C@@H](C)C(=O)[C@H](C)[C@H]2N(CCCCn3cc(Cn4nnc5ccccc54)nn3)C(=O)O[C@]12C (stereo partly drawn) [OP-1007]"
system_tested = "S. pyogenes ATCC 19615"
recorded_measurement = "≤ 0.125 µg/mL"

[[record]]
compound = "CC[C@H]1OC(=O)[C@H](C)C(=O)[C@H](C)[C@@H](O[C@@H]2O[C@H](C)C[C@H](N(C)C)[C@H]2O)[C@](C)(OC)C[C@@H](C)C(=O)[C@H](C)[C@H]2N(CCCCn3cnc(-c4cccnc4)c3)C(=O)O[C@]12C [Telithromycin, reference compound]"
system_tested = "S. pyogenes ATCC 19615"
recorded_measurement = "≤ 0.125 µg/mL"


Please examine the following record next.
Lookup: Return MIC for the following compound: CC[C@H]1OC(=O)[C@H](C)C(=O)[C@H](C)[C@@H](OC2OC(C)C(O)C(N(C)C)C2O)[C@@](C)(OC)C[C@@H](C)C(=O)[C@H](C)[C@H]2N(CCCCn3cc(Cn4nnc5ccccc54)nn3)C(=O)O[C@]12C (stereo partly drawn) [OP-1071]
Found: ≤ 0.125 µg/mL

Value source: patent US8012943B2
